This collection of values is drawn from paper PMC7462985.

# Tested on: HEK293H cells expressing p61BRAF^V600E/R509H
# testName: p-ERK inhibition in transfected HEK293H cells
# Format: cell-based
# conditionSummary: HEK293-H, 1 μM lapatinib pre-treatment 1 h, PHI1 1 h, read-out: IC50 of pERK inhibition
measureName: IC50
The answer consists of two parts: a number and, after it, its unit.

Write down the reported IC50 of Cc1ccc(C(=O)Nc2ccc(CNCCN3CCOCC3)c(C(F)(F)F)c2)cc1C#Cc1cnc2cccnn12 , test system: HEK293H cells expressing p61BRAF^V600E/R509H.
6.8 µM

----------
# experimentalTarget: PDFGRα (Homo sapiens)
# Sequence (P16234 24-1089): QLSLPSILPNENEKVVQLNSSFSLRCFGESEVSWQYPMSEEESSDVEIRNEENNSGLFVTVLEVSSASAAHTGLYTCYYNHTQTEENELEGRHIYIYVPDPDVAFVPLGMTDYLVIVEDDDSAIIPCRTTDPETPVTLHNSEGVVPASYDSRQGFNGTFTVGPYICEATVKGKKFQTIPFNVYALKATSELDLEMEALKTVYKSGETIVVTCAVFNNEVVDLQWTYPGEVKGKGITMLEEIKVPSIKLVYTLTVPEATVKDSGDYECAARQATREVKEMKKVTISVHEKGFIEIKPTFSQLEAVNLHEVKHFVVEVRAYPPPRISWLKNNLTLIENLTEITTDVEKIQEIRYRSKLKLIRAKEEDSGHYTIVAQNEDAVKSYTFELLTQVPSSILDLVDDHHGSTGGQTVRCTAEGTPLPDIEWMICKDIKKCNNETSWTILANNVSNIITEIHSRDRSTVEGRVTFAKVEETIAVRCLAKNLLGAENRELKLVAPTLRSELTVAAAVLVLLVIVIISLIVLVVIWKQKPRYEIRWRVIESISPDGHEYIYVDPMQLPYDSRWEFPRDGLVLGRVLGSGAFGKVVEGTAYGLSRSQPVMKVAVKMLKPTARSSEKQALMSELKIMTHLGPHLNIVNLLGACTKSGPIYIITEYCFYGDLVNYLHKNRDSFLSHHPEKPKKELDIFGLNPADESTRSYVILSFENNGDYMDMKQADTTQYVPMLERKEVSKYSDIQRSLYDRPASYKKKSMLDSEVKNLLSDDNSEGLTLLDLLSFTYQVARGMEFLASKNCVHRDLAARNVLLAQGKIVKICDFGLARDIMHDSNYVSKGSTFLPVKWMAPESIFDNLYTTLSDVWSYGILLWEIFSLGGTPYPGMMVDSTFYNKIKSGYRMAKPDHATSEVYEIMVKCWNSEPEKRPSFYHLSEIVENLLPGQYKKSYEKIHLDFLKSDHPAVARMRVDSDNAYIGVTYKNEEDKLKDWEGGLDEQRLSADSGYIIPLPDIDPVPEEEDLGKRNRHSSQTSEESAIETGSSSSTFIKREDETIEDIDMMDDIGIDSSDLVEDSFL
measureName: pIC50
# log scale: pIC50 equals minus log10 of the concentration in mol/L

So what's the measured pIC50 for this one? Cc1ccc(C(=O)Nc2ccc(CNCCN3CCOCC3)c(C(F)(F)F)c2)cc1C#Cc1cnc2cccnn12
8.08

----------
# experimentalTarget: KIT (Homo sapiens, UniProt P10721)
# Sequence (P10721 26-976): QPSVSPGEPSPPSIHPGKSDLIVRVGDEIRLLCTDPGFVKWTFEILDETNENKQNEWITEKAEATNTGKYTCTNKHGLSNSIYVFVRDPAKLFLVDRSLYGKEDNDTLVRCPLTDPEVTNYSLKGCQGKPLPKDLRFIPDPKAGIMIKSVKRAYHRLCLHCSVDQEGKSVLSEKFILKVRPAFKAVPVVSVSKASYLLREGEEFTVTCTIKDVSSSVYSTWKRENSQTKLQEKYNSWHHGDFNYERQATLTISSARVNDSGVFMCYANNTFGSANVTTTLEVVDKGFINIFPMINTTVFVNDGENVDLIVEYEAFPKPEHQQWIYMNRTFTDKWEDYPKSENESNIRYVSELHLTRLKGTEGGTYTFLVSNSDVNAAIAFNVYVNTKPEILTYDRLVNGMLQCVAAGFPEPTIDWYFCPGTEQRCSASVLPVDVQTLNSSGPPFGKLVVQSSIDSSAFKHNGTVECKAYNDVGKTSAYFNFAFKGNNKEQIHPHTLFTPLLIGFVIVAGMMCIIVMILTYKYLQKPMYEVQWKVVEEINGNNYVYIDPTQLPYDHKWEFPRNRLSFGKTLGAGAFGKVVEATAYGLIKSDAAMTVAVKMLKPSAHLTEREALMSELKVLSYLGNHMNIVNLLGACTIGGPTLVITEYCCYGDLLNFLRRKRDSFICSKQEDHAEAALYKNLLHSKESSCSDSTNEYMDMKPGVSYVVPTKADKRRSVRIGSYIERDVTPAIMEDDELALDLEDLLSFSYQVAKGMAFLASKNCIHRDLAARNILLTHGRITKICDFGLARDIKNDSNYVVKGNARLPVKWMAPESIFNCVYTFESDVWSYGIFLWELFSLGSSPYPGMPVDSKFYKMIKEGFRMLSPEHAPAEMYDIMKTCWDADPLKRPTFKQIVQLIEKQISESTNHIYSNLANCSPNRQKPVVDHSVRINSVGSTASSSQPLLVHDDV
measureName: pIC50
# log scale: pIC50 equals minus log10 of the concentration in mol/L

So what's the measured pIC50 for this one? Cc1ccc(C(=O)Nc2ccc(CNCCN3CCOCC3)c(C(F)(F)F)c2)cc1C#Cc1cnc2cccnn12 [PHI1]
6.26
